Listed here: items and their measured Herbicidal effects Ab.
# System: China jute (Ab)
# measurement-notes: Test Example 4: crop plant selectivity by upland field soil treatment (cotton), herbicidal effects
# Type: in vivo
# Set-up: scale not given here
# experimental-context: dose 6.3 g ai/10 a, evaluated 21st day after application
Give the value as a plain number.

Please indicate recorded Herbicidal effects Ab of CCc1cc2c(-c3cn(C)c(C(F)(F)F)cc3=O)c(F)cc(Cl)c2o1 measured with China jute (Ab).
5

----------
Listed here: items and their measured Phytotoxicity Go.
# System: cotton (Go)
# measurement-notes: Test Example 4: crop plant selectivity by upland field soil treatment (cotton), phytotoxicity
# Type: in vivo
# Set-up: scale not given here
# experimental-context: dose 6.3 g ai/10 a, evaluated 21st day after application
# Description: (Test on Crop Plant Selectivity by Upland Field Soil Treatment) In a plastic pot (surface area: 600 cm^2) filled with sand, cotton (Go), Diaitaria ciliaris (Di), green foxtail (Se), pale smartweed (Po), slender amaranth (Am), common lambsquarters (Ch) and China jute (Ab) were sown and covered with soil. […]
Give the value as a plain number.

Recorded Phytotoxicity Go, per entry:
In [3]: df
Out[3]:
                                   compound  recorded_measurement
0  CSc1cc(-c2ccc(C(F)(F)F)n(C)c2=O)c(F)cc1Cl [Compound No. 1-87]                     1
1  COCSc1cc(-c2ccc(C(F)(F)F)n(C)c2=O)c(F)cc1Cl [1-91]                     1
2  CCc1cc2c(Cl)cc(F)c(-c3ccc(C(F)(F)F)n(C)c3=O)c2o1 [Compound 5-2]                     1
3  C#CCOc1cc(-c2cn(C)c(C(F)(F)F)cc2=O)c(F)cc1Cl [Compound 6-9]                     0
4  Cn1c(C(F)(F)F)ccc(-c2cc(OCC#N)c(Cl)cc2F)c1=O [1-25]                     1

Now turn to the next compound.
Name the recorded Phytotoxicity Go of the compound listed here: Cn1c(C(F)(F)F)ccc(-c2cc(C#N)c(Cl)cc2F)c1=O [Compound No. 1-119]
0
